- method: self-splicing fitness, log relative to wild type (ln ratio); higher = more splicing; Tetrahymena group I intron in knt gene, E. coli kanamycin selection, DiMSum; sequences stand for … in CUCUCU…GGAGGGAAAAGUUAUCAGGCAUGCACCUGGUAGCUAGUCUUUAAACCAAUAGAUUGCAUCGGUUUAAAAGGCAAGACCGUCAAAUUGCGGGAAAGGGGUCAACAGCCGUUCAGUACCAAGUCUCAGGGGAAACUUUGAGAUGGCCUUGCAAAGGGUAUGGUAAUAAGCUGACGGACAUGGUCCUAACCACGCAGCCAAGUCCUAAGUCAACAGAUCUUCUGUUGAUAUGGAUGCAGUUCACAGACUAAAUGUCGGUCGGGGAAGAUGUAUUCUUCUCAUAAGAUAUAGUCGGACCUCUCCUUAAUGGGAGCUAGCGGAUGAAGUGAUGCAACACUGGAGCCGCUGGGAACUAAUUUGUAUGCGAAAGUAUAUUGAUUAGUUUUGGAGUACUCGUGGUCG;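 further: selection with 25 µg/mL kanamycin versus none on LB agar overnight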
- settings: 30 °C
Note: every record was labeled by where its self-splicing fitness (ln) sits among small value (below -3), mid value (-3 to below -1), large value (-1 or more)

[[record]]
orderedresidues = "UCAAAGCAAUAUUACGCGGC"
grouplabel = "small value"

[[record]]
orderedresidues = "UACCAGCAAUAUUACGCCUG"
grouplabel = "mid value"

[[record]]
orderedresidues = "ACUAAGCAAUAUUACGAGUU"
grouplabel = "small value"

[[record]]
orderedresidues = "UAUCAGCAAUAUUACGGUGC"
grouplabel = "small value"

[[record]]
orderedresidues = "CCCUAGCAAUAUUACGGCGA"
grouplabel = "mid value"

[[record]]
orderedresidues = "UAUAAGCAAUAUUACGAAGG"
grouplabel = "mid value"

[[record]]
orderedresidues = "GAGGAGCAAUAUUACGUACC"
grouplabel = "large value"

[[record]]
orderedresidues = "UCAAAGCAAUAUUACGAUUG"
grouplabel = "mid value"

[[record]]
orderedresidues = "AUUUAGCAAUAUUACGAGAU"
grouplabel = "small value"

[[record]]
orderedresidues = "GCGGAGCAAUAUUACGUCAA"
grouplabel = "mid value"

[[record]]
orderedresidues = "GCGCAGCAAUAUUACGUCAC"
grouplabel = "small value"

[[record]]
orderedresidues = "CUUGAGCAAUAUUACGCCCG"
grouplabel = "mid value"

[[record]]
orderedresidues = "UGAGAGCAAUAUUACGCGUG"
grouplabel = "mid value"

[[record]]
orderedresidues = "CCUUAGCAAUAUUACGUGAC"
grouplabel = "small value"

[[record]]
orderedresidues = "CCUUAGCAAUAUUACGACAU"
grouplabel = "small value"

[[record]]
orderedresidues = "GUGCAGCAAUAUUACGCGGG"
grouplabel = "mid value"

[[record]]
orderedresidues = "GCAGAGCAAUAUUACGGUAG"
grouplabel = "mid value"

[[record]]
orderedresidues = "AUUGAGCAAUAUUACGAAUU"
grouplabel = "mid value"

[[record]]
orderedresidues = "GCUCAGCAAUAUUACGGCCC"
grouplabel = "mid value"

[[record]]
orderedresidues = "AAGCAGCAAUAUUACGCGUU"
grouplabel = "mid value"

[[record]]
orderedresidues = "AGAAAGCAAUAUUACGUCUG"
grouplabel = "large value"

[[record]]
orderedresidues = "GCCCAGCAAUAUUACGGCGA"
grouplabel = "large value"

[[record]]
orderedresidues = "GAACAGCAAUAUUACGACUU"
grouplabel = "large value"

[[record]]
orderedresidues = "AGCAAGCAAUAUUACGGAGC"
grouplabel = "mid value"

[[record]]
orderedresidues = "AAAAAGCAAUAUUACGCUUA"
grouplabel = "mid value"

[[record]]
orderedresidues = "GAGAAGCAAUAUUACGGUGC"
grouplabel = "mid value"

[[record]]
orderedresidues = "AAAAAGCAAUAUUACGUUAC"
grouplabel = "mid value"

[[record]]
orderedresidues = "GGUCAGCAAUAUUACGCAUG"
grouplabel = "mid value"

[[record]]
orderedresidues = "UACAAGCAAUAUUACGACGA"
grouplabel = "large value"

[[record]]
orderedresidues = "GGAAAGCAAUAUUACGGUGG"
grouplabel = "mid value"

[[record]]
orderedresidues = "AUAAAGCAAUAUUACGCUAA"
grouplabel = "large value"

[[record]]
orderedresidues = "GCAAAGCAAUAUUACGUCUU"
grouplabel = "mid value"

[[record]]
orderedresidues = "AGGAAGCAAUAUUACGUGAG"
grouplabel = "large value"


###

- method: self-splicing fitness, log relative to wild type (ln ratio); higher = more splicing; Tetrahymena group I intron in knt gene, E. coli kanamycin selection, DiMSum; sequences stand for … in CUCUCU…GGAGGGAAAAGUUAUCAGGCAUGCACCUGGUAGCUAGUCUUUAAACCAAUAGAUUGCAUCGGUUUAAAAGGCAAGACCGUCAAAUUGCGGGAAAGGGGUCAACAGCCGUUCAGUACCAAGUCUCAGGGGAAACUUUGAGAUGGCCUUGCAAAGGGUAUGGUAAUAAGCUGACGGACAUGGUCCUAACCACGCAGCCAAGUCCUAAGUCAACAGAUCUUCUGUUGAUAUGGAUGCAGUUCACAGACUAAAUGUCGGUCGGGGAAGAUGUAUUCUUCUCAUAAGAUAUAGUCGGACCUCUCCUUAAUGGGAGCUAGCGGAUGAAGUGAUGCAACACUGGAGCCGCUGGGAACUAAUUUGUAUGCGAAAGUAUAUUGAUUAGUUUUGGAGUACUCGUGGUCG
- settings: 37 °C
Note: every record was labeled by where its self-splicing fitness (ln) sits among small value = under -2, mid value = from -2 up to -0.3, large value = -0.3 and over

[[record]]
orderedresidues = "CUUUAGCAAUAUUACGCACG"
grouplabel = "large value"

[[record]]
orderedresidues = "UAUAAGCAAUAUUACGAUUU"
grouplabel = "mid value"

[[record]]
orderedresidues = "UGGUAGCAAUAUUACGGCCC"
grouplabel = "large value"

[[record]]
orderedresidues = "CCCCAGCAAUAUUACGCAUU"
grouplabel = "small value"

[[record]]
orderedresidues = "CACAAGCAAUAUUACGGUUU"
grouplabel = "small value"

[[record]]
orderedresidues = "GAUAAGCAAUAUUACGGGUC"
grouplabel = "mid value"

[[record]]
orderedresidues = "GAUCAGCAAUAUUACGGAAU"
grouplabel = "large value"

[[record]]
orderedresidues = "CACAAGCAAUAUUACGUCCG"
grouplabel = "large value"

[[record]]
orderedresidues = "UUGAAGCAAUAUUACGACAA"
grouplabel = "large value"

[[record]]
orderedresidues = "CCCCAGCAAUAUUACGAAGA"
grouplabel = "small value"

[[record]]
orderedresidues = "GCUGAGCAAUAUUACGAUAC"
grouplabel = "large value"

[[record]]
orderedresidues = "AGGAAGCAAUAUUACGCAAG"
grouplabel = "mid value"

[[record]]
orderedresidues = "GACAAGCAAUAUUACGUUUC"
grouplabel = "small value"

[[record]]
orderedresidues = "UUUUAGCAAUAUUACGACAU"
grouplabel = "mid value"

[[record]]
orderedresidues = "UAAAAGCAAUAUUACGUCUC"
grouplabel = "small value"


###

Each entry below carries its recorded self-splicing fitness (ln).
- method: self-splicing fitness, log relative to wild type (ln ratio); higher = more splicing; Tetrahymena group I intron in knt gene, E. coli kanamycin selection, DiMSum; sequences stand for … in CUCUCU…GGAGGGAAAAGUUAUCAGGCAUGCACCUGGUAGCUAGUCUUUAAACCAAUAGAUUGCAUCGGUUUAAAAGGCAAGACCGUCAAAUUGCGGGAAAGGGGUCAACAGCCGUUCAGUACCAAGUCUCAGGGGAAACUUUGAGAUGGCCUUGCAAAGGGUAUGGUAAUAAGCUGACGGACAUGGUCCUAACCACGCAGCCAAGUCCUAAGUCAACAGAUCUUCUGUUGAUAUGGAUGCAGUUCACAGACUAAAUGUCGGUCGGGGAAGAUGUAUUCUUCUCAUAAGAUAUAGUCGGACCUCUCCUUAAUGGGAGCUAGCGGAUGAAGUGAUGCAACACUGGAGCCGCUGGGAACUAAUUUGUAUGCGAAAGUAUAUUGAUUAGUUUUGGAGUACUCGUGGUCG
- settings: 37 °C
measurementKind: self-splicing fitness (ln)

[[record]]
orderedresidues = "GUUCAGCAAUAUUACGCCUA"
observed = 0.127

[[record]]
orderedresidues = "ACGUAGCAAUAUUACGAUAG"
observed = -2.53

[[record]]
orderedresidues = "AAAAAGCAAUAUUACGGCGG"
observed = -0.131

[[record]]
orderedresidues = "UCAUAGCAAUAUUACGAUUA"
observed = -0.81

[[record]]
orderedresidues = "AGUGAGCAAUAUUACGAGGC"
observed = -1.45

[[record]]
orderedresidues = "GUUUAGCAAUAUUACGCAUC"
observed = -1.04

[[record]]
orderedresidues = "AAAAAGCAAUAUUACGAAGU"
observed = -0.998

[[record]]
orderedresidues = "GAGUAGCAAUAUUACGGAGU"
observed = -3.05


###

- method: self-splicing fitness, log relative to wild type (ln ratio); higher = more splicing; Tetrahymena group I intron in knt gene, E. coli kanamycin selection, DiMSum; sequences stand for … in CUCUCU…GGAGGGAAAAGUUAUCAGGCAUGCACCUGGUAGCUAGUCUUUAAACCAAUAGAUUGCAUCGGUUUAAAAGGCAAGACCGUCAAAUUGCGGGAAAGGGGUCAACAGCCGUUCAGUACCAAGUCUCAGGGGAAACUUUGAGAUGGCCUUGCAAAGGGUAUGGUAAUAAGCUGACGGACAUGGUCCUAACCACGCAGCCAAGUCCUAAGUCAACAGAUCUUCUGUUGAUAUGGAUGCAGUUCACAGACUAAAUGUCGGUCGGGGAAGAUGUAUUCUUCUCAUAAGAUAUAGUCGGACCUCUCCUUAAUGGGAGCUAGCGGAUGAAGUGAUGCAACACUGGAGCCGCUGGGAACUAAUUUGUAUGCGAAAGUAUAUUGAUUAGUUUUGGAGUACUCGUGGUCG
- settings: 30 °C
Threshold check on self-splicing fitness (ln): at or above -3 gives True, strictly below gives False.

[[record]]
orderedresidues = "AGGUAGCAAUAUUACGAAGA"
grouplabel = "True"

[[record]]
orderedresidues = "CCCUAGCAAUAUUACGGCGC"
grouplabel = "False"

[[record]]
orderedresidues = "GGUAAGCAAUAUUACGCUGU"
grouplabel = "False"

[[record]]
orderedresidues = "UCUGAGCAAUAUUACGUAAG"
grouplabel = "True"

[[record]]
orderedresidues = "AUGGAGCAAUAUUACGUCUC"
grouplabel = "True"

[[record]]
orderedresidues = "UGUUAGCAAUAUUACGGGCC"
grouplabel = "True"

[[record]]
orderedresidues = "UUGAAGCAAUAUUACGGAAU"
grouplabel = "False"

[[record]]
orderedresidues = "CCGCAGCAAUAUUACGUUUA"
grouplabel = "False"

